FYI, the data here is from PubChem BioAssay.

assay_info: S. cerevisiae growth modulation with rapamycin, primary screen, strain BY4716, OD600, 96 h (AID 1091); also: test concentration not given here
recorded_conditions: higher = more signal, called active from +8 up or from −8 down
Consider the following molecules and their measured z-score readings.
Number only, no unit.

Please review the following examples before continuing.
• C#CCOc1ccc(C[C@H]2C(=O)O[C@H](Cc3ccccc3)[C@H](/C=C/C3CC3)N2CC#C)cc1 = 0.519
• COc1ccc([Si](C)(C)[C@@H]2[C@@H](CCn3cc([C@H](O)c4ccccc4)nn3)O[C@]3(C(=O)N(C)c4c(Br)cc(C)cc43)[C@H]2C)cc1 = 0.406
• COc1ccc([Si](C)(C)[C@H]2[C@H](CC(=O)N3Cc4ccccc4C[C@H]3CO)O[C@@]3(C(=O)N(Cc4cccc(N5C(=O)COc6ccccc65)c4)c4ccccc43)[C@@H]2C)cc1 = 2.29

Kindly review the next molecule as well.
Enquiry: // lookup z-score for O=C(N1CCCCC1)[C@@]1(Cc2ccccc2)N=C(c2ccc(OCCCO)cc2)O[C@H]1c1ccccc1
Return: 4.43
